assay.protocol: Tmax in rat plasma at 50 mg/kg dosed via oral gavage
Assay type: ADME, organism-based
measured.attribute: Tmax

# lookup: Tmax of C[N+](C)(C)CCO.O=C([O-])c1cc(/N=N/c2ccc(S(=O)(=O)Nc3ccccn3)cc2)ccc1O
15 min
